system: SB.msgc-1; assay: viability at highest tested concentration (MAXR) relative to DMSO; higher = less cytotoxic; details: SB.msgc-1 (sporadic gastric cancer)
observable: viability (%)
Numbers only, in %.

Answered cases to consult:
>>> val("O=C1c2c(O)cc(O)cc2O[C@H](c2cc(O)c(O)c(O)c2)[C@H]1O [Dihydromyricetin] (top concentration 46.0829 µM)")
62.8
>>> val("CO[C@H]1C[C@@H]2CC[C@@H](C)[C@@](O)(O2)C(=O)C(=O)N2CCCC[C@H]2C(=O)O[C@H]([C@@H](C)C[C@@H]2CC[C@@H](O)[C@H](OC)C2)CC(=O)[C@H](C)/C=C(\\C)[C@@H](O)[C@@H](OC)C(=O)[C@H](C)C[C@H](C)/C=C/C=C/C=C/1C [Sirolimus] (top concentration 46.0829 µM)")
76.1
>>> val("COc1cc2ncn(-c3cc(OCc4ccccc4[S+](C)(=O)[O-])c(C#N)s3)c2cc1OC [IKK-3 Inhibitor IX] (top concentration 46.0829 µM)")
93.1
>>> val("COc1cc(N2CCC(N3CCN(C)CC3)CC2)ccc1Nc1ncc(Cl)c(Nc2ccccc2[S+](=O)([O-])C(C)C)n1 [TAE-684] (top concentration 46.0829 µM)")
28.8
>>> val("CC(=O)O[C@H]1C[C@@H]2CC[C@@H]3[C@H](CC[C@@]4(C)[C@H]3C[C@H]([N+]3(C)CCCCC3)[C@@H]4OC(C)=O)[C@@]2(C)C[C@@H]1[N+]1(C)CCCCC1 [Pancuronium bromide] (top concentration 46.0829 µM)")
39.2

I'm hoping you can list viability for every compound here, please.
1. Cc1coc2c1C(=O)C(=O)c1c-2ccc2c(C)cccc12 [Tanshinone I] (top concentration 46.0829 µM)
2. CCCCCN(C)CCC(O)(P(=O)([O-])O)P(=O)(O)O [Ibandronate sodium hydrate] (top concentration 46.0829 µM)
3. COc1ccc(CC2c3cc(OC)c(OC)cc3CC[N+]2(C)CCC(=O)OCCCCCOC(=O)CC[N+]2(C)CCc3cc(OC)c(OC)cc3C2Cc2ccc(OC)c(OC)c2)cc1OC.O=S(=O)([O-])c1ccccc1.O=S(=O)([O-])c1ccccc1 (stereo unspecified) [Cisatracurium besylate] (top concentration 7.37327 µM)
4. C/C(=C\C(=O)Nc1ccccc1C(=O)O)c1ccc2ccccc2c1 [BIBR 1532] (top concentration 46.0829 µM)
5. Cc1csc(NC(=O)c2sc3nc4c(c(C(F)(F)F)c3c2N)CCC4)n1 [Irestatin 9389] (top concentration 46.0829 µM)
6. COc1cc(OC)c(OC)cc1C=O [Asaraldehyde] (top concentration 46.0829 µM)

Solution:
[115, 108, 94, 56.2, 42.3, 106]

---

test system: SB.mhdgc-1; test: viability at highest tested concentration (MAXR) relative to DMSO; higher = less cytotoxic; conditions: SB.mhdgc-1 (hereditary c.1380delA CDH1 gastric cancer)
I'd appreciate it if you could supply viability values for the items below.
Give bare numbers, in %.

As a guide, the following entries are already answered.
>>> val("CCOC1OC(=O)C[C@@H]1NC(=O)[C@@H]1CCCN1C(=O)[C@@H](NC(=O)c1ccc(N)c(Cl)c1)C(C)(C)C (stereo partly drawn) [VX-765] (top concentration 46.0829 µM)")
94.2
>>> val("COc1c(N2C[C@@H]3CCCN[C@@H]3C2)c(F)cc2c(=O)c(C(=O)O)cn(C3CC3)c12.Cl.O [Moxifloxacin hydrochloride] (top concentration 46.0829 µM)")
92.9

Moving on to the next compound.
Exercise: Would you please give the reported viability of COc1ccc2c(c1OC)C(=O)O[C@H]2[C@H]1c2c(cc3c(c2OC)OCO3)CCN1C [Noscapine] (top concentration 46.0829 µM) with SB.mhdgc-1?
Solution: 31.9

---

tested on: SB.mhdgc-1; experiment: AC50 for growth inhibition (viability) (log10 M); higher = less potent; conditions: SB.mhdgc-1 (hereditary c.1380delA CDH1 gastric cancer)
observable: AC50 for growth inhibition (log10 M)
Answers are plain numbers.

Solved cases (6 shown):
>>> val("c1ccc(CNc2nc(NCc3ccccc3)c3ccccc3n2)cc1")
-5.03
>>> val("C[C@@H](NC1=CC=CC=C1C(O)=O)C/2=C/C(=C\\N3C(=O)/C=C(\\N=C23)N4CCOCC4)C")
-4.82
>>> val("CC1CNc2c(cccc2[S+](=O)([O-])N[C@@H](CCCNC(=N)N)C(=O)N2CC[C@@H](C)C[C@@H]2C(=O)O)C1 (some centres not stated)")
-5.18
>>> val("C[C@H](NCc1ccc(OCc2cccc(F)c2)cc1)C(N)=O [Safinamide mesilate]")
-5.08
>>> val("Nc1nc(Cl)nc2c1ncn2[C@@H]1O[C@H](CO)[C@@H](O)[C@@H]1F")
-7.83
>>> val("CN[C@@H]1C[C@H]2O[C@@](C)([C@@H]1OC)n1c3ccccc3c3c4c(c5c6ccccc6n2c5c31)C(=O)N[C@H]4O [7-Hydroxystaurosporine]")
-6.28

Exercise: Return AC50 for growth inhibition (log10 M) (reported value) for this compound: CCCn1c(=O)c2[nH]c(C34CC5CC3C[C@@H](C5)C4)nc2n(CCC)c1=O
Solution: -4.68

---

system: SB.msgc-1; experiment: area under the dose-response curve of % viability (trapezoidal, 11 doses) (% viability x log10 concentration); higher = less cytotoxic; conditions: SB.msgc-1 (sporadic gastric cancer)
Where a name gives a salt, the structure may show the parent alone.
observable: area under the dose-response curve

Take a look at these entries with their results.
>>> val("CNC[C@H](O)c1cccc(O)c1 [Phenylephrine hydrochloride] (top concentration 46.0829 µM)")
541
>>> val("OC(CN1CCN(c2cccc(Cl)c2)CC1)C(c1ccccc1)c1ccccc1 (stereo not drawn) (top concentration 46.0829 µM)")
489

Now consider the entry below.
Exercise: Report area under the dose-response curve on SB.msgc-1 for this entry: O[C@@H]1[C@@H](O)[C@H](O[C@@H]([C@H]1O)C(O)=O)OC2=C(O)C(=C3C(=O)\C=C(/OC3=C2)C4=CC=CC=C4)O [Baicalin] (top concentration 46.0829 µM)
Solution: 511

---

Field: AC50 for growth inhibition (log10 M). Provide a value for each of the molecules that follow.
system: SB.msgc-1; assay: AC50 for growth inhibition (viability) (log10 M); higher = less potent; conditions: SB.msgc-1 (sporadic gastric cancer)
Numbers only.

>>> val("CC1=CC=CC=C1N2\\C(=N/C3=C(C(=CC=C3)C)C2=O)C[N]4C=NC5=C4N=CN=C5N")
-6.23
>>> val("Cc1cc2c(cc1C1(c3ccc(C(=O)O)cn3)CC1)C(C)(C)CCC2(C)C")
-4.73
>>> val("C=C1C(=O)[C@@]23C(CC[C@@H]1[C@H]2O)[C@@]12CO[C@]3(O)[C@@H](O)[C@@H]1C(C)(C)CC[C@@H]2O (stereo partly drawn)")
-4.73

Go through the items and report each one's AC50 for growth inhibition (log10 M).
1. Cc1csc(NC(=O)c2sc3nc4c(c(C(F)(F)F)c3c2N)CCC4)n1
2. CC1=C(C)C2=C(S1)[N]3C(=NN=C3[C@H](CC(=O)OC(C)(C)C)/N=C2/C4=CC=C(Cl)C=C4)C
3. CC1CCN(c2cc(N3CCN(C)CC3)ccc2NC(=O)c2cc(C#N)c[nH]2)CC1
4. C=CC(=O)Nc1cc2c(Nc3ccc(F)c(Cl)c3)ncnc2cc1C#CC(C)(C)N1CCN(C)CC1
5. CCCCCCCCOc1ccccc1C(=O)Nc1ccc(C(=O)OCC[N+](C)(CC)CC)cc1 [Octylonium bromide]

Solution:
1: -4.68; 2: -5.38; 3: -4.68; 4: -5.08; 5: -4.68

---

Field: area under the dose-response curve. Provide a value for each of the compounds that follow.
test system: SB.msgc-1; experiment: area under the dose-response curve of % viability (trapezoidal, 11 doses) (% viability x log10 concentration); higher = less cytotoxic; settings: SB.msgc-1 (sporadic gastric cancer)

# per-item lookup of area under the dose-response curve; items listed below
1. COc1ccc(Nc2cc(-c3cnc(N)nc3)nc(N3CCOCC3)n2)cn1 [NIBR-17] (top concentration 46.0829 µM)
2. COc1ccc(CC2c3cc(OC)c(OC)cc3CC[N+]2(C)CCC(=O)OCCCCCOC(=O)CC[N+]2(C)CCc3cc(OC)c(OC)cc3C2Cc2ccc(OC)c(OC)c2)cc1OC.O=S(=O)([O-])c1ccccc1.O=S(=O)([O-])c1ccccc1 (stereo unspecified) [Cisatracurium besylate] (top concentration 7.37327 µM)
3. COc1cc(NCc2ccc3nc(N)nc(N)c3c2C)cc(OC)c1OC [Trimetrexate] (top concentration 46.0829 µM)

Solution:
1. 421
2. 558
3. 302

Provide area under the dose-response curve values for the following items, in order.
1. CC(=O)O[C@H]1C(=O)[C@]2(C)[C@@H](O)C[C@H]3OC[C@@]3(OC(C)=O)C2[C@H](OC(=O)C4=CC=CC=C4)[C@]5(O)C[C@H](OC(=O)[C@H](O)[C@@H](NC(=O)C6=CC=CC=C6)C7=CC=CC=C7)\C(=C1/C5(C)C)C (stereo partly specified) [Paclitaxel] (top concentration 46.0829 µM)
2. Nc1ccc([S+](=O)([O-])Nc2ncccn2)cc1 [Silver sulfadiazine] (top concentration 46.0829 µM)
3. C1Cc2[nH]nc(-c3nn[nH]n3)c2C1 [MK-0354] (top concentration 46.0829 µM)
4. CC(=O)Nc1nc(C)c(-c2ccc(Cl)c([S+](=O)([O-])NCCO)c2)s1 [PIK-93] (top concentration 46.0829 µM)
5. CN(C)/N=N/c1nc[nH]c1C(N)=O [Dacarbazine] (top concentration 46.0829 µM)

Solution:
[246, 511, 499, 400, 541]

Provide the reported area under the dose-response curve of each entry below, same order.
1. CCNC(=O)c1noc(-c2cc(C(C)C)c(O)cc2O)c1-c1ccc(CN2CCOCC2)cc1 [NVP-AUY922] (top concentration 46.0829 µM)
2. NC(=O)c1ncn([C@@H]2O[C@H](CO)[C@@H](O)[C@H]2O)c1N [Acadesine] (top concentration 46.0829 µM)
3. Oc1ccc(C2CNCCc3c2cc(O)c(O)c3Cl)cc1 (stereo unspecified) [Fenoldopam] (top concentration 46.0829 µM)

Solution:
[362, 541, 470]
